Organism: Rattus norvegicus
ASSAY NOTES: Open TG-GATES - Regimen: Single
Assay type: toxicity, organism-based, Sprague-Dawley
Parameters: regimen Single, gender Male, age 6 weeks
CONDITION SUMMARY: in vivo, po, 0 mg/kg, 6 h, tissue Plasma, route gavage, dose level Control
OBSERVABLE: CRE
Don't forget the unit after the number, please.

Take a look at these entries with their results.
- MOLECULE: "CC(CCc1ccccc1)NCC(O)c1ccc(O)c(C(N)=O)c1 (configuration not stated)"
  OBSERVABLE: "CRE"
  RESULT: "0.2 mg/dL"
- MOLECULE: "O=C(O)COc1nn(Cc2ccccc2)c2ccccc12"
  OBSERVABLE: "CRE"
  RESULT: "0.5 mg/dL"
- MOLECULE: "CC(C)Cc1ccc(C(C)C(=O)O)cc1 (configuration not stated)"
  OBSERVABLE: "CRE"
  RESULT: "0.2 mg/dL"

Consider the molecule shown here: `CC[C@@H](CO)NCCN[C@@H](CC)CO` What is its recorded CRE?
0.2 mg/dL

Give its CRE value. Item: CC(=O)N1CCN(c2ccc(OCC3COC(Cn4ccnc4)(c4ccc(Cl)cc4Cl)O3)cc2)CC1 (configuration not stated)
0.2 mg/dL

# get_value(readout='CRE', item= `CC(=O)Nc1ccc2c(c1)Cc1ccccc1-2` )
0.4 mg/dL

# CRE lookup, item `CCN(CC)N=O`
0.4 mg/dL

====

Species: Rattus norvegicus
ASSAY NOTES: Open TG-GATES - Regimen: Daily Repeat
Assay type: toxicity, organism-based, Sprague-Dawley
Design: regimen Daily Repeat, gender Male, age 6 weeks
CONDITION SUMMARY: in vivo, po, 0 mg/kg, 72 h, tissue Blood, route gavage, dose level Control, time 3 day
OBSERVABLE: Bas

Observe how each entry below is paired with its result.
- COMPOUND: "O=C(O)COc1nn(Cc2ccccc2)c2ccccc12 [BENDAZAC]"
  Bas: "0%"
- COMPOUND: "CC(CCc1ccccc1)NCC(O)c1ccc(O)c(C(N)=O)c1 (stereo not drawn) [LABETALOL]"
  Bas: "0%"
- COMPOUND: "CCN(CC)N=O [N-NITROSODIETHYLAMINE]"
  Bas: "0.8%"
- COMPOUND: "CC(C)Cc1ccc(C(C)C(=O)O)cc1 (stereo not drawn) [IBUPROFEN]"
  Bas: "0%"
- COMPOUND: "CC[C@@H](CO)NCCN[C@@H](CC)CO [ETHAMBUTOL]"
  Bas: "0%"
- COMPOUND: "CC(=O)Nc1ccc2c(c1)Cc1ccccc1-2 [2-ACETYLAMINOFLUORENE]"
  Bas: "1%"
- COMPOUND: "CC(=O)N1CCN(c2ccc(OCC3COC(Cn4ccnc4)(c4ccc(Cl)cc4Cl)O3)cc2)CC1 (stereo not drawn) [KETOCONAZOLE]"
  Bas: "0%"

As a next step, examine the compound that follows.
Can you look up the measured Bas of CC(N)=O [ACETAMIDE] for me?
0%

====

Species: Rattus norvegicus
ASSAY NOTES: Open TG-GATES - Regimen: Daily Repeat
Type: toxicity, organism-based, Sprague-Dawley
Parameters: regimen Daily Repeat, gender Male, age 6 weeks
CONDITION SUMMARY: in vivo, po, 0 mg/kg, […], tissue Blood, route gavage, dose level Control, time 7 day
Eos values, listed per item
Reply with just the number (in %).

Suppose we examine the compound CC(CCc1ccccc1)NCC(O)c1ccc(O)c(C(N)=O)c1 (stereo not drawn) ; what Eos value has been reported?
0.8

Value lookup for Eos; key = `O=C(O)COc1nn(Cc2ccccc2)c2ccccc12`
0.8

What value of Eos has been reported for the following compound? `CCN(CC)N=O`
1

Returns the measured Eos for the input compound. Input: `CC[C@@H](CO)NCCN[C@@H](CC)CO`
1
